Ref: PubChem BioAssay

protocol_description: sensitizers of A549 cells to miR-34 induction, primary screen, imaging, A549 dox-inducible miR-34, nuclei and caspase counts (AID 1347080); further: test concentration not given here
assay_conditions: A549 miR-34 inducible, Hoechst nuclei count, 48 h; stronger effect = lower value; cell number ratio, induced over uninduced
Field 'label' (enum: true (1) / false (0)). Set to true (1) when fold change is strictly under 0.9; else false (0).

C[C@]12CCC3c4ccc(O)cc4CCC3C1CC[C@@H]2O (stereo partly drawn)
false (0)

Record "Nc1ncnc2c1ncn2[C@@H]1O[C@H](CO)C[C@H]1O" : is its fold change strictly below 0.9?
false (0)

Bench note: check whether "CN(C)[C@@H]1C(=O)C(C(=O)NCN2CCCC2)=C(O)[C@@]2(O)C(=O)C3=C(O)c4c(O)cccc4[C@@](C)(O)[C@H]3C[C@@H]12" shows fold change below 0.9
true (1)

Below 0.9 on fold change? Entry "Cc1c(O)c(=O)n(-c2ccccc2)n1C"
false (0)

Find out if reported fold change for CC1c2cccc(O)c2C(O)=C2C(=O)[C@]3(O)C(O)=C(C(N)=O)C(=O)[C@@H](N(C)C)[C@@H]3C[C@@H]21 (stereo partly drawn) is less than 0.9
false (0)

State whether 0.9 exceeds fold change recorded for C[C@H]1O[C@@H](O[C@H]2[C@@H](O)C[C@H](O[C@H]3[C@@H](O)C[C@H](O[C@H]4CC[C@@]5(C)[C@H](CC[C@@H]6[C@@H]5C[C@@H](O)[C@]5(C)C(C7=CC(=O)OC7)CC[C@]65O)C4)O[C@@H]3C)O[C@@H]2C)C[C@H](O)[C@@H]1O (stereo partly drawn) .
true (1)

###

measured_target: Protein kinase 7 (PK7), Plasmodium falciparum 3D7 (PF3D7_0213400) (UniProt Q7YTF7)
protocol_description: inhibition of Plasmodium PK7 catalytic activity – biochemical, TCAMS antimalarial set, Kinase-Glo luminescence (AID 1159587)
assay_conditions: recombinant PfPK7, Kinase-Glo ATP depletion luminescence
Calls of active or inactive are those of the source. How the calls were made is not given here.
recorded_endpoint: outcome

The following molecules have reported results that may help.
Nc1nc(N)c2c(ccc3c2ccn3Cc2cccc(F)c2)n1
inactive
CCCOc1cc2c(cc1OCCC)C(C=Cc1ccc(Cl)cc1Cl)=NC(C)C2 (centres undefined)
inactive
c1ccc(COc2ccc(Nc3ncnc4cnc(-c5ccc(CNc6cccnc6)o5)cc34)cc2)cc1
inactive
O=C(Nc1cccc(-c2nn3ccccc3c2-c2ccnc(Nc3ccc(NCCCN4CCOCC4)c(F)c3)n2)c1)c1c(F)cccc1F
inactive
Cc1cc(C(=O)Nc2ccc3c(ccn3C3CCCN(Cc4ccc(C(F)(F)F)cc4F)CC3)c2)no1 (centres undefined)
inactive
CCC(C)NC(=O)Cn1c2ncccc2c(=O)n1-c1ccc(C)cc1 (centres undefined)
inactive

outcome for "CCOC(=O)c1c(-c2ccccc2)c(C(=O)OCC)n2ccccc12" ?
inactive

What value of outcome has been reported for the following molecule? "Cc1cc(-c2cccc(CNC3CCN(C)CC3)c2)ccc1S(=O)(=O)NCCc1ccccn1"
inactive

# lookup: outcome of "CCN1CCN(c2cc(C)c3cc(NC(=O)c4cccc([N+](=O)[O-])c4)ccc3n2)CC1"
inactive

###

protocol_description: sensitizers of A549 cells to miR-34 induction, primary screen, imaging, A549 dox-inducible miR-34, nuclei and caspase counts (AID 1347080); further: test concentration not given here
assay_conditions: A549 miR-34 inducible, Hoechst nuclei count, 48 h; measured here: total cells without miR-34 induction
# cell count per entry

Use the examples below as a reference point.
CC12CCC3c4ccc(O)cc4CCC3C1C[C@H](O)[C@@H]2O (stereo partly specified)
8350
C[n+]1ccccc1C=NO
13300
O=C1c2c(O)cccc2[C@@H](O[C@@H]2O[C@H](CO)[C@H](O)[C@@H](O)[C@H]2O)c2cc(CO)cc(O)c21
9140
CC1(O)CCOC(=O)C1 (stereo unspecified)
8540

# lookup: cell count of NCC1CCCCC1CC(=O)O (stereo unspecified)
12700

Fill in the blank: the reported cell count of "CNC(=O)[C@H]1O[C@@H](n2cnc3c(NCc4cccc(I)c4)nc(Cl)nc32)[C@H](O)[C@@H]1O" is ____.
6160
